Data credit: patent US20220387487A1

Reported FMC63 Binding Score values follow for various molecules
- Test system: FMC63
- Sequence (as listed by the source): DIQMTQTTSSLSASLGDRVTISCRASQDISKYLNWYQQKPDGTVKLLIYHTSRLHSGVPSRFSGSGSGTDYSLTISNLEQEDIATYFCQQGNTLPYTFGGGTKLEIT
- Sequence (as listed by the source): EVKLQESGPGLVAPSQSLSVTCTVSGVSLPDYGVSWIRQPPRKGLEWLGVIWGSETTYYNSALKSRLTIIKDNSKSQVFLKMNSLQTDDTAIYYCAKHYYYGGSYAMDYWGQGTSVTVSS
- method_description: CD19 variant binding to anti-CD19 antibody FMC63 (score)
- experimental_parameters: Table 1A, CD19 single mutants (positions of SEQ ID NO:2)

>  <molecule>
W264R: CD19 variant (protein) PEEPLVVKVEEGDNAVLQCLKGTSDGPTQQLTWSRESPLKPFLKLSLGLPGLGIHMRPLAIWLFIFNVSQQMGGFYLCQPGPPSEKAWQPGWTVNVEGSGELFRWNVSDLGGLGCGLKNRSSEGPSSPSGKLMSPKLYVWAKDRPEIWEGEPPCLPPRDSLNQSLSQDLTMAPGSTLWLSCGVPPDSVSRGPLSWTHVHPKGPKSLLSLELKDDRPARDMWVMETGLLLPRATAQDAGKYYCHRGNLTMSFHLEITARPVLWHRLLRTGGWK

>  <FMC63 Binding Score>
6.9 ± .3

$$$$

Consider the additional molecule presented here.
molecule L261K: CD19 variant (protein) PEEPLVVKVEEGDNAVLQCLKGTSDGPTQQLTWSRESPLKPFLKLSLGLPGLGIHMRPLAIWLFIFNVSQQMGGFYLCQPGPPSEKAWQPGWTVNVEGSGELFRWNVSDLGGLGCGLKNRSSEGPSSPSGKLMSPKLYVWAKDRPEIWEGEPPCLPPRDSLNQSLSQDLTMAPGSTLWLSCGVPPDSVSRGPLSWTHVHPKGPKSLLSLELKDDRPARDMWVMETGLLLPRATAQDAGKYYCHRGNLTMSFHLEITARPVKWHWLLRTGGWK , FMC63 Binding Score observed: 6.2 ± .6
